Reference source: ChEMBL document CHEMBL1221385

# subject of test: Gamma-secretase
# assay info: Inhibition of gamma secretase-mediated amyloid beta42 production in HEK293 cells
pIC50: −log10 of the molar value.
value kind: pIC50

> print(dat)
                                   molecule  subject.of.test  result.value
1  COc1cc(/C=C2\N=C(NCC3CC3)N([C@@H](C)c3ccc(F)cc3)C2=O)ccc1-n1cnc(C)c1  Gamma-secretase          6.60

1. COc1cc(/C=C2\N=C(NC3CC3)N([C@@H](C)c3ccc(F)cc3)C2=O)ccc1-n1cnc(C)c1
2. COc1cc(/C=C2\N=C(N)N([C@H](CO)c3ccc(F)cc3)C2=O)ccc1-n1cnc(C)c1
3. CCN1CCCC(c2ccc(F)cc2)N2C(=O)/C(=C/c3ccc(-n4cnc(C)c4)c(OC)c3)N=C12 (single isomer, unassigned; (-))
4. COc1cc(/C=C2\N=C3NCCCC(c4ccc(F)cc4)N3C2=O)ccc1-n1cnc(C)c1 (racemic)
Request: hey, can you rank those molecules up there by pIC50? biggest number first please Write the labels in rank order as requested.
Response: 3, 2, 1, 4

P. CCCCNC1=N/C(=C\c2ccc(-n3cnc(C)c3)c(OC)c2)C(=O)N1[C@@H](C)c1ccc(F)cc1
Q. COc1cc(/C=C2\N=C3NCCC(c4ccc(F)cc4)N3C2=O)ccc1-n1cnc(C)c1 (single isomer, unassigned; (+))
Request: P or Q : whose pIC50 is greater? Your answer should be the label of the entry you select.
Response: Q

I. COc1cc(/C=C2\N=C(N)N([C@H](CCO)c3ccc(F)cc3)C2=O)ccc1-n1cnc(C)c1
II. CCCCNC1=N/C(=C\c2ccc(-n3cnc(C)c3)c(OC)c2)C(=O)N1[C@H](C)c1ccc(F)cc1
Request: I or II : whose pIC50 is greater? Your answer should be the label of the entry you select.
Response: II
(II: 7.04, I: 6.64)
